These data points were gathered from PubChem BioAssay AID652126.

activation: recorded values
Tested on: Nuclear hormone receptor DAF-12 (Strongyloides stercoralis)
test-protocol: S. stercoralis DAF-12 nuclear receptor activators, primary screen, cell-based, luminescence, HEK293, GRIP1 co-expression, lit1-tk-luc (AID 652126);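 further: 0% = DMSO-only wells and 100% = 3 µM delta7-dafachronic acid wells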
test-conditions: HEK293 ssDAF-12/GRIP1 lit1-tk-luc reporter, at 6.8 µM, stronger effect = higher value, % of 3 µM dafachronic acid response
Among all 370,000 compounds or so, about 3,700 (1%) were called active. The list comes from a sample in which actives are over-represented; it also holds close analogues and randomly drawn compounds.

A selection of reference data follows.
- input-smiles: "CCOC(=O)[C@]12CCCCC/C=C\\1N(Cc1ccc(OC)cc1)C(=O)[C@H]2CC(=O)NCCCN1CCCC1=O"
  activation: "-0.74% (inactive)"
- input-smiles: "COC(=O)[C@]12C[C@H](CC(=O)N3CCN(C(=O)C4CC4)CC3)C(=O)N(CCC3=CCCCC3)C1=C[C@H](C(C)C)O[C@@H]2C1CC1"
  activation: "-1.07% (inactive)"
- input-smiles: "Nn1c(SCC(=O)Nc2ccc(S(N)(=O)=O)cc2)nnc1-c1n[nH]c2c1CCC2"
  activation: "-0.68% (inactive)"

Consider now this further molecule.
Task item: # activation lookup, item `CCn1c2ccccc2c2cc(NC(=O)CSc3nnc(-c4ccccc4)n3-c3ccc(C)cc3)ccc21`
Reply: -1.2% (inactive)
